- protocol-notes: chemical genetic growth profiling, strain panel (AID 1159580);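 note: tested at 20 µM; growth read once vehicle control cultures reached saturation at 30 °C; 1 = growth at the plate median or of vehicle wells; lower values mean less growth of the strain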
- condition-details: S. cerevisiae deletion strains, growth OD, locus YNL020C, strain ARK1, stronger effect = lower value
Hit rate of the full screen: of about 5,500 compounds, about 2,000 (36%) were called active. Roughly 18% stayed inconclusive and do not appear here. This is one part of the list.
metric: normalized growth
Give a plain numeric answer without units written out.

| chemical-string | normalized growth |
| --- | --- |
| O=C(NCCSCc1cccc(C(F)(F)F)c1)c1ccc(Cl)cc1 | 0.896 |
| CCOC(=O)/C(=N/Nc1c(Cl)cccc1Cl)c1csc(N)n1 | 0.904 |
| O=[N+]([O-])c1cc(Br)cnc1Sc1nnc(SCC2CC2)s1 | 0.418 |
| Cc1nn(Cc2ccc(C(=O)Sc3ccc(C(F)(F)F)cn3)o2)c(C)c1Br | 0.882 |
| O=S(=O)(N/N=C\c1ccc(Cl)cc1)c1ccc(-c2ccccn2)s1 | 0.953 |
| Cc1c(C)c(C)c(CSC(N)=Nc2ccc(F)cc2)c(C)c1C | 0.969 |
| CCCc1c(C(=O)NC2Cc3ccccc3C2)cnn1-c1ccccc1 | 0.984 |
| N#CC(C#N)=C/C=C(/Sc1nc2ccccc2s1)c1ccc(Br)cc1 | 0.142 |
| O=[N+]([O-])/C=C/c1ccc(F)cc1 | 0.102 |
| O=c1c(Cl)c(-n2cccn2)cnn1-c1ccc(Cl)cc1Cl | 0.914 |

Read the next record carefully.
query: Would you mind telling me what normalized growth value was observed for Cc1c2c(=O)[nH]ncc2c(-c2ccccc2)n1-c1ccc([N+](=O)[O-])cc1 ?
result: 0.975
